tested on: Chikungunya virus (CHIKV); test: microbe, parasite or virus in culture; assay type: cell-based; conditions: Chikungunya virus, Vero, 48 h, read-out: Percent viral inhibition CHKV
// reported inhibition at 1 µM for each item listed

These recorded examples may help you get a feel for the data.
1) CC(O)CCN1CCN(c2ncc(Oc3cc(CN4CCC(CC(=O)O)CC4)cc(-c4cc(Cl)cc(Cl)c4)n3)cn2)CC1 (stereo not shown)	37%
2) O=C(O)CC1CCN(Cc2cc(Oc3cnc(N4CCN(C5CC(O)C5)CC4)nc3)nc(-c3cc(Cl)cc(Cl)c3)c2)CC1 (stereo not shown)	26.8%
3) CC(CC1CCN(Cc2cc(Oc3cnc(N4CCN(C)CC4)nc3)nc(-c3cc(Cl)cc(Cl)c3)c2)CC1)C(=O)O (stereo not shown)	3.11%
4) CS(=O)(=O)CCCN1CCN(c2cnc(Oc3cc(CN4CCC(CC(=O)O)CC4)cc(-c4cc(Cl)cc(Cl)c4)n3)cn2)CC1	17.2%
5) CC(=O)NCC1CCN(Cc2cc(Oc3cnc(N4CCN(CCC(N)=O)CC4)nc3)nc(-c3cc(F)c(F)c(Cl)c3)c2)CC1	23.4%

Sure, the documented inhibition at 1 µM for `O=C(O)CC1CCN(Cc2cc(Oc3cnc(N4CCN(CCC5(O)CC5)CC4)nc3)nc(-c3cc(Cl)cc(Cl)c3)c2)CC1` is 45.6%

Sure, the documented inhibition at 1 µM for `COCCN1CCN(c2ncc(Oc3cc(CN4CCC(CC(=O)O)CC4)cc(-c4cc(Cl)cc(Cl)c4)n3)cn2)CC1` is 31.1%

Sure, the documented inhibition at 1 µM for CC(CCN(C)C)N1CCN(c2ncc(Oc3cc(CN4CCC(CC(=O)O)CC4)cc(-c4cc(Cl)cc(Cl)c4)n3)cn2)CC1 (stereo not shown) is 28.5%

Sure, the documented inhibition at 1 µM for CC(=O)NCC1CCN(Cc2cc(Oc3cnc(N4CCN(C(C)CCS(C)(=O)=O)CC4)nc3)nc(-c3cc(Cl)cc(Cl)c3)c2)CC1 (stereo not shown) is 21.6%

Sure, the documented inhibition at 1 µM for `CC(=O)NCC1CCN(Cc2cc(Oc3ccc(N4CCN(C)CC4)nn3)nc(-c3cc(Cl)cc(Cl)c3)c2)CC1` is 25.3%

Sure, the documented inhibition at 1 µM for `COC(=O)NCC1(O)CCN(Cc2cc(Oc3ccc(N4CCNCC4)nc3)nc(-c3cc(Cl)cc(Cl)c3)c2)CC1` is 0%

Sure, the documented inhibition at 1 µM for CC(=O)NCC1CCN(Cc2cc(Oc3cnc(N4CCN(C(C)CC(=O)O)CC4)nc3)nc(-c3cc(Cl)cc(Cl)c3)c2)CC1 (stereo not shown) is 8.2%

Sure, the documented inhibition at 1 µM for CC(CCN1CCN(c2ncc(Oc3cc(CN4CC[C@@H]5[C@H](CC4)[C@H]5NS(C)(=O)=O)cc(-c4cc(Cl)cc(Cl)c4)n3)cn2)CC1)C(=O)O (stereo partly shown) is 26.1%
